Below is a list of entries, each paired with its recorded ELISA score value.
Biological target: T1, human neonatal Fc receptor (hFcRn) (human, UniProt P55899 24-290; P61769 21-119)
T1 construct: Biotinylated in the ELISA, Octet and yeast assays; also called human FcRn; huFcRn
T1 sequence (P55899 24-290 limits assumed, chain 1 of 2): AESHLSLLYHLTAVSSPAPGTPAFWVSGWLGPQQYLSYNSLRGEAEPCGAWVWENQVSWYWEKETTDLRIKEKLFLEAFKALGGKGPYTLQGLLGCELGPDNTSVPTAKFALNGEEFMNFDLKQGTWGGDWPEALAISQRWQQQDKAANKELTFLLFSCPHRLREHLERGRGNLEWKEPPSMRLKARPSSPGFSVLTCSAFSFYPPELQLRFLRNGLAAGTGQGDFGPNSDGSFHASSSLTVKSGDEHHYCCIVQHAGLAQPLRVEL
T1 sequence (P61769 21-119 limits assumed, chain 2 of 2): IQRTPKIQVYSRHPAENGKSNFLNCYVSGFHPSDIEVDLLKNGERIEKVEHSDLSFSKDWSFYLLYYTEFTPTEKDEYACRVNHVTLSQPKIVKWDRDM
Assay: phage ELISA pH 7.4;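 also: higher score means stronger binding and above about 3 to 5 exceeds background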
Please reply with the number alone, leaving off any unit.

Take a look at these entries with their results.
According to the records, this binder L5 isolate with insertion SEQ ID NO: 421 (other) EPKSCDKTHTCPPCPAPELLGGPSVFLFPPKPKDTLMISRTPEVTCVVVDVSHEDPEVKFNWYVDGVEVHNAKTKPREEQYNSTYRVVSVLTVLHQDWLNGKEYKCKVSNKALPAPIEKTISKAKGQPREPQVYTLPPSRDELTKNQVSLTCLVKGFYPSDIAVEWESNGGCNPHRTPCGGGQPENNYKTTPPVLDSDGSFFLYSKLTVDKSRWQQGNVFSCSVMHEALHNHYTQKSLSLSPGK displays ELISA score of 0.3

Kindly note the recorded ELISA score for L5 isolate with insertion SEQ ID NO: 449 (other) EPKSCDKTHTCPPCPAPELLGGPSVFLFPPKPKDTLMISRTPEVTCVVVDVSHEDPEVKFNWYVDGVEVHNAKTKPREEQYNSTYRVVSVLTVLHQDWLNGKEYKCKVSNKALPAPIEKTISKAKGQPREPQVYTLPPSRDELTKNQVSLTCLVKGFYPSDIAVEWESNGGCLQNLYVCGGGQPENNYKTTPPVLDSDGSFFLYSKLTVDKSRWQQGNVFSCSVMHEALHNHYTQKSLSLSPGK , which is 0.4

L5 isolate with insertion SEQ ID NO: 431 (other) EPKSCDKTHTCPPCPAPELLGGPSVFLFPPKPKDTLMISRTPEVTCVVVDVSHEDPEVKFNWYVDGVEVHNAKTKPREEQYNSTYRVVSVLTVLHQDWLNGKEYKCKVSNKALPAPIEKTISKAKGQPREPQVYTLPPSRDELTKNQVSLTCLVKGFYPSDIAVEWESNGGCNEPKYVCGGGQPENNYKTTPPVLDSDGSFFLYSKLTVDKSRWQQGNVFSCSVMHEALHNHYTQKSLSLSPGK yielded ELISA score of 0.5

Data point: L5 isolate with insertion SEQ ID NO: 436 (other) EPKSCDKTHTCPPCPAPELLGGPSVFLFPPKPKDTLMISRTPEVTCVVVDVSHEDPEVKFNWYVDGVEVHNAKTKPREEQYNSTYRVVSVLTVLHQDWLNGKEYKCKVSNKALPAPIEKTISKAKGQPREPQVYTLPPSRDELTKNQVSLTCLVKGFYPSDIAVEWESNGGCAERQYYCGGGQPENNYKTTPPVLDSDGSFFLYSKLTVDKSRWQQGNVFSCSVMHEALHNHYTQKSLSLSPGK ; ELISA score = 1.4

Next, consider the following binder.
What the record says about L5 isolate with insertion SEQ ID NO: 451 (other) EPKSCDKTHTCPPCPAPELLGGPSVFLFPPKPKDTLMISRTPEVTCVVVDVSHEDPEVKFNWYVDGVEVHNAKTKPREEQYNSTYRVVSVLTVLHQDWLNGKEYKCKVSNKALPAPIEKTISKAKGQPREPQVYTLPPSRDELTKNQVSLTCLVKGFYPSDIAVEWESNGGCNLGHMPCGGGQPENNYKTTPPVLDSDGSFFLYSKLTVDKSRWQQGNVFSCSVMHEALHNHYTQKSLSLSPGK : ELISA score is 0.4
